test system: cos-7 cells; assay: DNA transfection: luciferase expression relative to Lipofectamine 2000; format: cell-based; conditions: lipid/DNA 25 w/w; 300 ng of DNA per well
REPORTED ENDPOINT: luciferase expression (second part of table, values relative to LIPO2000)

INSERT INTO assay_data (compound, assayed_system, reported_measurement) VALUES
  ('CCCCCCCCCCCCOC(=O)CCN(CCOCCO)CCC(=O)OCCCCCCCCCCCC', 'cos-7 cells', 174.1),
  ('CCCCCCCCCCCCNC(=O)CCN(CCCCCCO)CCC(=O)NCCCCCCCCCCCC', 'cos-7 cells', 0.0),
  ('CCCCCCCCCCCCNC(=O)CCN(CCCCCO)CCC(=O)NCCCCCCCCCCCC', 'cos-7 cells', 0.0),
  ('CCCCCCCCCCCCNC(=O)CCN(CCC(=O)NCCCCCCCCCCCC)CC(O)CO (stereo not drawn)', 'cos-7 cells', 0.0),
  ('CCCCCCCCCCCCCCOC(=O)CCN(CCC(=O)OCCCCCCCCCCCCCC)CCN(CCC(=O)OCCCCCCCCCCCCCC)CCC(=O)OCCCCCCCCCCCCCC', 'cos-7 cells', 6.2),
  ('CCCCCCCCCCCCCCOC(=O)CCN(CCCn1ccnc1)CCC(=O)OCCCCCCCCCCCCCC', 'cos-7 cells', 171.3),
  ('CCCCCCCCCCCCNC(=O)CCN(CCOCCO)CCC(=O)NCCCCCCCCCCCC', 'cos-7 cells', 19.7),
  ('CCCCCCCCCCCCNC(=O)CCN(CCC(=O)NCCCCCCCCCCCC)CC(C)O (stereo not drawn) [ND22]', 'cos-7 cells', 0.2),
  ('CCCCCCCCCCCCNC(=O)CCN(C)CCN(CCC(=O)NCCCCCCCCCCCC)CCC(=O)NCCCCCCCCCCCC', 'cos-7 cells', 54.0);

====

test: DNA delivery: raw luciferase expression (relative light units) of best-transfecting lipids; type: cell-based; conditions: lipid/DNA 5 w/w; 300 ng of DNA per well
REPORTED ENDPOINT: Raw values for luciferase expression (relative lights units)

INSERT INTO results (molecule, reported_endpoint, unit_spec, reported_measurement) VALUES
  ('CCCCCCCCCCCCCCCNC(=O)CCN(CCC(=O)NCCCCCCCCCCCCCCC)CCN(CCO)CCO [NG86]', 'Raw values for luciferase expression', 'relative lights units', 1521687),
  ('CCCCCCCCCCCCNC(=O)CCN(CCC(=O)NCCCCCCCCCCCC)CCc1c[nH]cn1 [ND94]', 'Raw values for luciferase expression', 'relative lights units', 1382667),
  ('CCCCCCCCCCCCNC(=O)CCN(CCC(=O)NCCCCCCCCCCCC)C(CO)CO [ND25]', 'Raw values for luciferase expression', 'relative lights units', 5088120),
  ('CCCCCCCCCCCCCCNC(=O)CCN(CCCOC)CCC(=O)NCCCCCCCCCCCCCC [NF1]', 'Raw values for luciferase expression', 'relative lights units', 227587),
  ('CCCCCCCCCCCCCCNC(=O)CCN(C)CCCN(C)CCC(=O)NCCCCCCCCCCCCCC [NF63]', 'Raw values for luciferase expression', 'relative lights units', 865897);

====

Here the recorded luciferase expression, second set of columns (replicate set of data) is given for each entry.
Tested on: cos-7 cells
Assay: DNA transfection: luciferase expression relative to Lipofectamine 2000
Assay type: cell-based
Settings: replicate set, 4th column; no head printed (15 w/w by the raw values)
Procedure: 14,000 cos-7 cells (ATCC, Manassas, Va.) were seeded into each well of a solid white or clear 96 well plate (Corning-Costar, Kennebunk, Me.) and allowed to attached overnight in growth medium, composed of: 500 ml phenol red minus DMEM, 50 ml heat inactivated FBS, 5 ml penicillin/streptomycin (Invitrogen, Carlsbad, Calif.). […] Luminescence was analyzed using bright-glo assay kits (Promega). […] Luminescence was measured using a Mithras Luminometer (Berthold, Oak Ridge, Tenn.). […]
REPORTED ENDPOINT: luciferase expression, second set of columns (replicate set of data)

INSERT INTO assay_data (compound, reported_measurement) VALUES
  ('CCCCCCCCCCCCNC(=O)CCN(CCC(=O)NCCCCCCCCCCCC)CCN(CCC(=O)NCCCCCCCCCCCC)CCN(CCC(=O)NCCCCCCCCCCCC)CCN(CCC(=O)NCCCCCCCCCCCC)CCC(=O)NCCCCCCCCCCCC [ND98]', 9.2),
  ('CCCCCCCCCCCCCCNC(=O)CCN(CCO)CCN(CCC(=O)NCCCCCCCCCCCCCC)CCC(=O)NCCCCCCCCCCCCCC [NF109]', 1.6),
  ('CCCCCCCCCCCCCCNC(=O)CCN(C)CCN(CCC(=O)NCCCCCCCCCCCCCC)CCC(=O)NCCCCCCCCCCCCCC [NF95]', 12.1),
  ('CCCCCCCCCCCCCCNC(=O)CCN(C)CCCN(CCC(=O)NCCCCCCCCCCCCCC)CCC(=O)NCCCCCCCCCCCCCC [NF96]', 2.4);

====

tested on: cos-7 cells; experiment: DNA transfection: luciferase expression relative to Lipofectamine 2000; assay type: cell-based; conditions: lipid/DNA 25 w/w; 300 ng Luciferase DNA per well; luciferase assay after 48 hours
Please respond with satisfied when measured Luciferase expression as a percentage of that achieved using Lipofectamine 2000 is strictly beneath 0.3%, and with not satisfied in all other cases.

INSERT INTO measurements (compound, class_assignment) VALUES
  ('CCCCCCCCCCCCCCCOC(=O)CCN(CCCN(CC)CC)CCC(=O)OCCCCCCCCCCCCCCC', 'not satisfied'),
  ('CCCCCCCCCCOC(=O)CCN(CCCCCCO)CCC(=O)OCCCCCCCCCC', 'satisfied'),
  ('CCCCCCCCCCCCCCOC(=O)CCN(CCCN(C)C)CCC(=O)OCCCCCCCCCCCCCC', 'not satisfied'),
  ('CCCCCCCCCCOC(=O)CCN(CCOC)CCC(=O)OCCCCCCCCCC', 'satisfied'),
  ('CCCCCCCCCCOC(=O)CCN(CCC(=O)OCCCCCCCCCC)C(C)(CO)CO', 'satisfied'),
  ('CCCCCCCCCCCCOC(=O)CCN(CCC(=O)OCCCCCCCCCCCC)CCN1CCCCC1', 'not satisfied'),
  ('CCCCCCCCCCCCCCOC(=O)CC[N+](C)(CCC(=O)OCCCCCCCCCCCCCC)CCC1OCCO1.[I-]', 'satisfied'),
  ('CCCCCCCCCCCCCCOC(=O)CCN(CCC(=O)OCCCCCCCCCCCCCC)CCN1CCCCC1', 'not satisfied'),
  ('CCCCCCCCCCOC(=O)CCN(CCC(=O)OCCCCCCCCCC)CC(O)CO (stereo not shown)', 'satisfied'),
  ('CCCCCCCCCCCCCCOC(=O)CC[N+](C)(CCC(=O)OCCCCCCCCCCCCCC)CCC1CCC[N+]1(C)C.[I-].[I-] (stereo not shown)', 'not satisfied'),
  ('CCCCCCCCCCCCCCOC(=O)CCN(CCCN(CC)CC)CCC(=O)OCCCCCCCCCCCCCC', 'not satisfied'),
  ('CCCCCCCCCCOC(=O)CCN(CCCO)CCC(=O)OCCCCCCCCCC', 'not satisfied'),
  ('CCCCCCCCCCOC(=O)CCN(CCC(=O)OCCCCCCCCCC)C[C@H](C)O', 'not satisfied'),
  ('CCCCCCCCCCCCCCCCCCOC(=O)CCN(CCOC)CCC(=O)OCCCCCCCCCCCCCCCCCC', 'satisfied'),
  ('CCCCCCCCCCCCCCCOC(=O)CCN(CCOCCO)CCC(=O)OCCCCCCCCCCCCCCC', 'not satisfied'),
  ('CCCCCCCCCCCCCCCOC(=O)CCN(CCC(=O)OCCCCCCCCCCCCCCC)C(CO)CO', 'not satisfied'),
  ('CCCCCCCCCCCCCCCCCCOC(=O)CCN(CCCOC)CCC(=O)OCCCCCCCCCCCCCCCCCC', 'satisfied'),
  ('CCCCCCCCCCCCCCCOC(=O)CCN(CCCCO)CCC(=O)OCCCCCCCCCCCCCCC', 'satisfied'),
  ('CCCCCCCCCCOC(=O)CCN(CCCCO)CCC(=O)OCCCCCCCCCC', 'satisfied'),
  ('CCCCCCCCCCCCOC(=O)CCN(C)CCN(CCC(=O)OCCCCCCCCCCCC)CCC(=O)OCCCCCCCCCCCC', 'not satisfied'),
  ('CCCCCCCCCCCCCCCCCCOC(=O)CCN(CCCO)CCC(=O)OCCCCCCCCCCCCCCCCCC', 'satisfied'),
  ('CCCCCCCCCCCCCCCOC(=O)CCN(C)CCN(C)CCC(=O)OCCCCCCCCCCCCCCC', 'not satisfied'),
  ('CCCCCCCCCCCCCCOC(=O)CCN(CCCCCCO)CCC(=O)OCCCCCCCCCCCCCC', 'satisfied'),
  ('CCCCCCCCCCCCCCOC(=O)CCN(CCC(=O)OCCCCCCCCCCCCCC)CC(OC)OC', 'satisfied'),
  ('CCCCCCCCCCCCCCCOC(=O)CCN(CCOC)CCC(=O)OCCCCCCCCCCCCCCC', 'satisfied'),
  ('CCCCCCCCCCOC(=O)CCN(CC)CCN(CC)CCC(=O)OCCCCCCCCCC', 'satisfied'),
  ('CCCCCCCCCCCCCCOC(=O)CCN(CCC(=O)OCCCCCCCCCCCCCC)CC1COC(C)(C)O1 (stereo not shown)', 'satisfied'),
  ('CCCCCCCCCCCCCCOC(=O)CCN(CCC(=O)OCCCCCCCCCCCCCC)CCN1CCCC1', 'not satisfied'),
  ('CCCCCCCCCCCCCCCOC(=O)CC[N+](C)(CCC(=O)OCCCCCCCCCCCCCCC)CCC1CCC[N+]1(C)C.[I-].[I-] (stereo not shown)', 'not satisfied'),
  ('CCCCCCCCCCCCCCOC(=O)CCN(CCCCO)CCC(=O)OCCCCCCCCCCCCCC', 'not satisfied');
